Test system: CDK3
test context: concentration: 1 μM, replicates: in singlicate; n = 1;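 note: KINOMEscan kinase panel screen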
observable: %Inh (%)
One number for each entry, in %.

Solved cases below.
**Q:** What value of %Inh on CDK3 does O=c1cc(N2CCOCC2)nc2n(Cc3cccc(Cl)c3Cl)ccn12 have?
**A:** 0

**Q:** What value of %Inh on CDK3 does Cc1ccc(NC(=O)Nc2cc(C(C)(C)C)nn2-c2ccccc2)cc1 have?
**A:** 8

Batch lookup, %Inh per entry.
1. COc1cc2ncn(-c3cc(OCC4CCCO4)c(C(N)=O)s3)c2cc1OC (stereo not drawn)
2. CC(=O)Nc1nc2cnc(Nc3cc(NC(=O)c4cccc(CCC#N)c4)ccc3C)nc2s1
3. COC(=O)c1c(-c2ccccc2)c2cc(OC)ccc2c(=O)n1Cc1ccccc1
4. Fc1cccc(COc2nnc(-c3ccc4c(c3)CCO4)o2)c1

**A:**
[0, 0, 10, 4]

###

Tested on: PDGFRA
test context: concentration: 1 μM, replicates: in singlicate; n = 1
Note to self: use TRUE only for %Inh readings below 2%; a reading exactly at 2% still gets FALSE.

**Q:** # TODO verify %Inh < 2% strictly for this compound: COc1ccc(CNC(=O)NC2CCN(c3ccnc(Nc4cc(OC)c(OC)c(OC)c4)n3)C2)cc1 (stereo not shown)
**A:** FALSE

***
**Q:** # TODO verify %Inh < 2% strictly for this compound: COc1ccc(Nc2nccc(-c3cccc(NC(=O)c4cc5cc(F)ccc5[nH]4)c3)n2)cc1
**A:** FALSE

**Q:** # TODO verify %Inh < 2% strictly for this compound: O=C(Nc1n[nH]c2nc(-c3nccs3)c(Br)cc12)C1CCCC1
**A:** TRUE

**Q:** # TODO verify %Inh < 2% strictly for this compound: Cc1cc(N2Cc3ccccc3C2)nc(Nc2ccc(S(=O)(=O)N3CCOCC3)cc2)n1.Cl
**A:** TRUE

###

Tested on: TAOK2
test context: concentration: 1 μM, replicates: in singlicate; n = 1
observable: %Inh (%)
One number for each entry, in %.

Solved cases below.
**Q:** What value of %Inh on TAOK2 does Cl.Oc1ccc(-c2nc(-c3ccccc3)[nH]c2-c2ccncc2)cc1 have?
**A:** 0

**Q:** What value of %Inh on TAOK2 does COc1cccc(NC(=O)NC2CCN(c3ccnc(Nc4ccc(F)cc4)n3)C2)c1 (stereo not drawn) have?
**A:** 0

Batch lookup, %Inh per entry.
1. CC(C)(C)c1ccc(C(=O)Nc2cn3cc(Cl)ccc3n2)cc1
2. Fc1cccc(COc2nnc(-c3ccc4c(c3)CCO4)o2)c1
3. CC(C)(C)c1ccc(C(=O)Nc2cn3cc(-c4cccnc4)ccc3n2)cc1
4. COC(=O)c1c(-c2ccccc2)c2cc(OC)ccc2c(=O)n1Cc1ccccc1
5. CSc1nn2c(=O)cc(N3CCOCC3)nc2n1Cc1cccc(C(F)(F)F)c1C

**A:**
[10, 0, 2, 0, 0]

Batch lookup, %Inh per entry.
1. COc1ccc(Nc2nccc(NCCNC(=O)Nc3ccccc3F)n2)cc1
2. Cc1ccc(NC(=O)Nc2cc(C(C)(C)C)nn2-c2ccccc2)cc1

**A:**
[0, 0]

###

Test system: CSNK1E
test context: concentration: 1 μM, replicates: in singlicate; n = 1
So I've got a bunch of molecules here, and I need their %Inh values.
Answers are plain numbers, in %.

Solved cases below.
**Q:** Recorded %Inh for Cn1ccc2ncnc(Oc3ccc(NC(=O)Nc4ccccc4)cc3)c21 , please?
**A:** 5

**Q:** Recorded %Inh for CS(=O)(=O)c1ccc(-c2c(-c3ncn[nH]3)sc(N3CCOCC3)c2C#N)cc1 , please?
**A:** 4

**Q:** Recorded %Inh for Cc1csc(-c2nc(Nc3ccncc3)c3ccccc3n2)n1 [GW869640] , please?
**A:** 41

**Q:** Recorded %Inh for Cc1ccc(NC(=O)Nc2cc(C(C)(C)C)nn2-c2ccccc2)cc1 [GSK1014915] , please?
**A:** 0

**Q:** Recorded %Inh for O=C(Nc1n[nH]c2nc(-c3nccs3)c(Br)cc12)C1CC1 [SB-742251] , please?
**A:** 14

Batch lookup, %Inh per entry.
1. COc1cccc(-c2cc(-c3c[nH]nc3-c3ccccn3)ccn2)c1 [GW680338]
2. CCn1c(-c2cccnc2O)nc2cnccc21 [SB-736715]
3. Cc1nnc(-c2ccc3occ(-c4ccc(S(C)=O)cc4)c3c2)[nH]1 (stereo not drawn)

**A:**
1: 23; 2: 0; 3: 0

Batch lookup, %Inh per entry.
1. O=C(Nc1n[nH]c2nc(-c3nccs3)c(Br)cc12)C1CCCC1 [SB-742609]
2. Cn1cncc1-c1ccc2ncnc(Nc3ccc(OCc4ccccc4)cc3)c2c1 [GW320571]
3. O=C(Nc1n[nH]c2cc(-c3cccc(F)c3F)ccc12)C1CC1 [SB-733894]
4. COc1ccccc1CNC(=O)c1cc(C(=O)c2ccccc2C)c[nH]1 [GSK364507]

**A:**
1. 11
2. 99.4
3. 0
4. 20
